Data provenance: patent EP0908457B1

test system: Sagittaria pygmaea, L.; assay: Preemergence weed control under flooded paddy conditions, SAGPY (Arrowhead (Pygmaea)); format: in vivo; settings: 0.1250 kg/ha; preemergence weeds, flooded paddy; rated three to four weeks after treatment; further: meaning of each grade not given here

COMPOUND: Cc1ccc(OCC(=O)NS(C)(=O)=O)c(-c2nsc3ccc(-n4c(=O)cc(C(F)(F)F)n(C)c4=O)cc23)c1 [Example 121]
herbicidal effect rating, SAGPY: 0.0
//
COMPOUND: CCOCCOCc1nsc2ccc(-n3c(=O)cc(C(F)(F)F)n(C)c3=O)cc12 [Example 200]
herbicidal effect rating, SAGPY: 0.0
//
COMPOUND: CC(C)SCc1nsc2ccc(-n3c(=O)cc(C(F)(F)F)n(C)c3=O)cc12 [Example 202]
herbicidal effect rating, SAGPY: 0.0
//
COMPOUND: CCc1nsc2ccc(-n3c(=O)cc(C(F)(F)F)n(C)c3=O)cc12 [Example 119]
herbicidal effect rating, SAGPY: 8.0
//
COMPOUND: CCOCc1nsc2ccc(-n3c(=O)cc(C(F)(F)F)n(C)c3=O)cc12 [Example 195]
herbicidal effect rating, SAGPY: 1.0
